Reported Kd is given for each of the following binders.
target: T1, His-tagged human CTLA-4 (CT4-H5229; Acro Biosystems) (human, UniProt P16410 36-161); test: SPR (Carterra)
T1 construct: bought soluble protein; also called soluble human CTLA-4; recombinant human CTLA-4; not shown: His tag
T1 sequence (P16410 36-161 limits assumed): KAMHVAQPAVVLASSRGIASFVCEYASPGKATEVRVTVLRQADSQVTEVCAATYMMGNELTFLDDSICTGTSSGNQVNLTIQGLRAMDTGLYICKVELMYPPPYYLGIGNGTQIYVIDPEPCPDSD
The reply should be a number in nM, with the unit left off.

antibody A1 (L1H1) (antibody, V domains shown, also called aCTLA-4.9; CTLA4.A1) VH: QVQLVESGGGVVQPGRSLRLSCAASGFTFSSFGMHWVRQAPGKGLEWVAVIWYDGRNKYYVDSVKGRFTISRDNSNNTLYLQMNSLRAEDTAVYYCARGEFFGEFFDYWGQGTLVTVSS VL: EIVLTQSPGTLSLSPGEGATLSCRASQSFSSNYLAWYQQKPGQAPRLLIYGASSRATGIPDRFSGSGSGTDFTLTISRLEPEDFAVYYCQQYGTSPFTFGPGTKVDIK : 0.77

Next:
Query: Query (binder): antibody A16 (L16H16) (antibody, V domains shown, also called aCTLA-4.5) VH: QVQLVESGGGVVQPGRSLRLSCAASGFTFSSYGIHWVRQAPGKGLEWVAVIWYDGSNKYYADSVKGRFTISRDNSKNTLYLQMNSLRAEDTAVYYCARGSLLGPFDYWGQGTLVTVSS VL: DIQMTQSPSSLSASVGDRVTITCRASQGISNYLAWYQQKPGKVPKLLIYAASTLQSGVPSRFSGSGSGTDFTLTISSLQPEDVATYYCQNYNSAPWTFGQGTKVEIK ; field requested: Kd
Result: 23
